residual activity values by entry
Biological target: Focal adhesion kinase 1 (Homo sapiens)
Settings: at 10 µM
Please don't drop the unit; write it after the number.

Which residual activity value is on record for CCOc1cc2ncnc(Nc3cccc(Br)c3)c2cc1OCC ?
79%

Now try COc1ccc(C(=O)Nc2sc3c(c2C(N)=O)CCCC3)cc1OC .
78%

And what about the compound CNc1cc2c(Nc3cccc(Br)c3)ncnc2cn1 ?
82%

Consider the record given below.
Name the reported residual activity value associated with the compound O=C(Nc1cccc(Nc2cc(Nc3cccc(C(F)(F)F)c3)ncn2)c1)C1CC1
79%

----------
Molecular target: cAMP-dependent protein kinase catalytic subunit PRKX (Homo sapiens)
Conditions: at 1 µM
METRIC: residual activity (%)
Give your result in % as a bare value.

Example molecules with recorded residual activity:
Given the molecule COc1cc2ncnc(N3CCN(C(=O)Nc4ccc(Oc5ccccc5)cc4)CC3)c2cc1OC , what is its reported residual activity?
77

Likewise for Oc1ccc(Nc2nc(-c3ccc(Cl)cc3)cs2)cc1 ?
78

// next record Nc1ccc2ncnc(NCCc3ccc(Oc4ccccc4)cc3)c2c1
109

Next record, please: COc1ccc(OC)c2c(=S)c3ccccc3[nH]c12
83

Please give the result for Nc1cccc(-c2cc3c(Oc4cccc(O)c4)ncnc3[nH]2)c1 too.
85

***
# query: residual activity of entry O=c1c2ccccc2[nH]c(=S)n1CCN1CCC(=C(c2ccc(F)cc2)c2ccc(F)cc2)CC1
87

// repeat for Ic1cccc(CSc2nnc(-c3ccncc3)o2)c1 and report
57

Now the same for CN(C)c1ccc(/C=C2\C(=O)Nc3ccccc32)cc1
92

What about Cc1nc(-c2ccccc2)c(-c2ccncc2)o1 ?
86

Another: CO[C@@H]1[C@H](N(C)C(=O)c2ccccc2)C[C@H]2O[C@]1(C)n1c3ccccc3c3c4c(c5c6ccccc6n2c5c31)C(=O)NC4
24

The reported measurements were obtained from ChEMBL document CHEMBL2218924.
